Test system: MDA-MB-435
The reply should be one of these categories: active, inactive

Answered cases to consult:
{"compound": "Cc1cc2c(c3oc(C4(C)OC4C4OC4C)cc(=O)c13)C(=O)c1c(O)c(C3CC(C)(N(C)C)C(O)C(C)O3)cc(C3CC(N(C)C)C(O)C(C)O3)c1C2=O (stereo not given)", "assigned_class": "active"}
{"compound": "S=C(N/N=C(/c1ccccc1)c1ccccn1)N1CCCCCC1", "assigned_class": "active"}

## Task # fetch the recorded call for COC(=O)/C=C/c1cn(C(C)=O)c2ccc(Br)cc12 here
## Result inactive

## Task # fetch the recorded call for O=S(=O)(Nc1cc(Cl)ccc1Cl)c1ccc(-c2cnc(C3CC3)o2)cc1 here
## Result active
